Tested on: CRL-7250
Assay: Cytotoxic Profiling of Annotated Libraries Using Quantitative High-Throughput Screening (AID 1296008); note: % is set by controls: 0 for no effect and ±100 for the full control effect; nearly all actives have a fitted effect of over 60% in size
Details: Five cell lines viability, CellTiter-Glo ATP luminescence, 48-72 h; stronger effect = lower value
Results filed as inconclusive are left out. Activity calls are given as the source filed them. Calls come from the whole dose curve; as a rule, active = well fitted inhibition curve with a large enough effect; inconclusive = small, poorly fitted or top-dose-only effect; inactive = flat fitted curve, though single readings scatter. Where a SMILES comes first, the peptide text is derived from it. The star is where a group is joined. βNA = c1ccc2cc(N*)ccc2c1; Cbz = O=C(OCc1ccccc1)*
MEASURE: max response

Which max response value is on record for CC(C)CC(NC(=O)OCc1ccccc1)C(=O)NC(CC(C)C)C(=O)NC(CCC(=O)O)C(=O)Nc1ccc2ccccc2c1 (stereo not drawn) (Cbz-Leu-Leu-Glu-βNA; configuration not given here) ? -12.3% (inactive)

What does the data say about its max response? Entry: `Cc1cc(-n2c(=O)[nH]c(=O)n(C)c2=O)ccc1Oc1ccc(SC(F)(F)F)cc1` -0.879% (inactive)

May I ask what max response has been recorded for CC1=CC(=O)CC(C)(C)[C@@]1(O)/C=C/C(C)O[C@@H]1O[C@H](CO)[C@@H](O)[C@H](O)[C@H]1O (stereo partly specified) ? -4.8% (inactive)

Fill blank: measured max response of the molecule `O=C(O)[C@H]1Cc2ccccc2CN1` is ____. 1.62% (inactive)

Would you kindly share the measured max response for C=CC(C)(CC/C=C(\C)C(=O)OC[C@H]1O[C@@H](OC(C)(C=C)CC/C=C(\C)C(=O)O[C@H]2[C@H](O)[C@@H](O)[C@H](OC(C)(C=C)CC/C=C(\C)C(=O)O)O[C@@H]2CO)[C@H](O)[C@@H](O)[C@@H]1O)O[C@@H]1O[C@H](CO)[C@@H](O)[C@H](O)[C@H]1O (stereo partly specified) ? -2.1% (inactive)

Reported max response, molecule `C/C(=C\CO)CC/C=C(\C)C(=O)O[C@@H]1O[C@H](CO)[C@@H](O)[C@H](O)[C@H]1O` : ____ -4.11% (inactive)
